Tested on: KM12 colon
measurement_notes: NCI tumour cell line growth inhibition, 48 h
measurement_label: TGI

compound: CCOC(=O)CCCn1cc(C(=O)OC)nn1
measurement_label: TGI
result: > 100 µM

Input line: TGI for c1ccc(CC(NCCNC(Cc2ccccc2)c2ccccc2)c2ccccc2)cc1 (stereo not drawn) ?
Output line: 1.52 µM

Input line: TGI for CCCCCCCCCC(=O)Oc1cccc2onc(C)c12 ?
Output line: > 100 µM

* * *

Test system: MCF7 breast
measurement_notes: NCI tumour cell line growth inhibition, 48 h; in the data active = GI50 below about 0.43 µM; inactive = the rest
Allowed answers: active, inactive

Input line: Name the outcome recorded for CCc1cccc(CC)c1/C=C/c1cncc(C(=O)NC)c1 in the assay.
Output line: inactive

Input line: Name the outcome recorded for CC12OC(C(=O)C13CCC3)C1C(=O)c3ccccc3C(=O)C12 (centres undefined) in the assay.
Output line: inactive

Input line: Name the outcome recorded for O=c1oc2ccc(F)cc2c(=O)n1-c1ccc(Br)cc1F in the assay.
Output line: inactive
